Measured growth inhibition values are reported for all entries that follow.
# ASSAY_METHOD_TEXT: inhibition of 3D7 malaria parasite growth – strain 3D7 (AID 2306);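 further: 0% = DMSO wells and 100% = chloroquine plus artemisinin control wells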
# CONDITION_NOTES: P. falciparum 3D7 erythrocytic growth, LDH absorbance, 72 h; at 2 µM; active compounds read high
Note: unit % is implicit; provide only the numeric part.

| COMPOUND | growth inhibition [%] |
| --- | --- |
| Cc1nn(CC(O)Cn2c3ccc(Br)cc3c3cc(Br)ccc32)c(C)c1Br (centres undefined) | 98 |
| CC(C)[C@H](NC(=O)c1c(F)cccc1F)C(=O)Nc1ccc(Cc2nc3ccccc3s2)cc1 | 82 |
| Cc1cccc2[nH]c(-c3cccc(-c4cccc(NC(=O)c5ccc(=O)[nH]n5)c4)c3)nc12 | 101 |

Let us examine a further case.
# query: growth inhibition of entry "CCCNCc1ccc(-c2ccc(CNC3Cc4ccccc4C3)cc2)nc1"
97

====

# ASSAY_METHOD_TEXT: inhibition of 3D7 malaria parasite growth – strain 3D7 (AID 2306);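 further: 0% = DMSO wells and 100% = chloroquine plus artemisinin control wells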
# CONDITION_NOTES: P. falciparum 3D7 erythrocytic growth, LDH absorbance, 72 h; at 2 µM; active compounds read high
OBSERVABLE: growth inhibition (%)
Note: unit % is implicit; provide only the numeric part.

# query: growth inhibition of entry "O=S(=O)(NCCN1CCCC1)c1ccc(-c2cccc(CNCc3ccc(F)cc3)c2)cc1"
100

# query: growth inhibition of entry "COc1cc2nc(N3CCC(CNC(=O)c4ccc(-c5ccc(C(F)(F)F)cc5)cc4)CC3)nc(N)c2cc1OC"
100

====

# ASSAY_METHOD_TEXT: inhibition of 3D7 malaria parasite growth – strain 3D7 (AID 2306);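 further: 0% = DMSO wells and 100% = chloroquine plus artemisinin control wells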
# CONDITION_NOTES: P. falciparum 3D7 erythrocytic growth, LDH absorbance, 72 h; at 2 µM; active compounds read high
Measured growth inhibition values are reported for all entries that follow.
Note: unit % is implicit; provide only the numeric part.

Worked cases, growth inhibition given:
| MOLECULE | OBSERVABLE | MEASURED_RESULT |
| --- | --- | --- |
| Cc1ccc(-n2cc(CNCC3CCN(CCO)CC3)c(-c3ccc(F)cc3)n2)cc1 | growth inhibition | 91 |
| Cc1[nH]c(C)c(-c2ccc(C(=O)c3ccccc3)cc2)c(=O)c1Br | growth inhibition | 95 |

# query: growth inhibition of entry "COc1cc2nc(C)nc(Nc3ccc(Oc4ccccc4)cc3)c2cc1OC"
101

====

# ASSAY_METHOD_TEXT: antimalarial activity against Dd2 strain (AID 2302);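 further: 0% = DMSO untreated growth and 100% = chloroquine plus artemisinin killed control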
# CONDITION_NOTES: P. falciparum Dd2 in RBCs, LDH growth readout, 72 h; at 2 µM
Activity calls are given as the source filed them.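 How the source made its calls: active means growth inhibition above 50% at the single 2 µM test dose, taken to imply half-maximal potency below 2 µM; inactive means the rest.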
Can you answer with just one of these options? T for active, F for inactive

Please review the following examples before continuing.
| COMPOUND | GROUP |
| --- | --- |
| CC(=O)Nc1cccc(NC(=O)CSc2ccc(-c3nc4ccccc4[nH]3)cn2)c1 | T |
| Cc1ccc(CNC(=O)c2cc3c(=O)n4ccccc4nc3n(CCCN3CCOCC3)c2=N)cc1 | F |
| CCn1ccc2c(N3CCCS3(=O)=O)cc(C(=O)N[C@@H](Cc3ccccc3)[C@H](O)CNC3CCCCC3)cc21 | T |
| CC(C)Oc1cccc(-c2ccc(C(=O)NCC3CCCN(Cc4cccc(C(F)(F)F)c4)C3)s2)c1 (centres undefined) | F |
| CCCC1(NC[C@@H](O)[C@H](Cc2ccccc2)NC(=O)c2cc(NCC)cc(N3CCCCS3(=O)=O)c2)CC1 | T |

Kindly consider the entry below.
// outcome(item) with item = "Oc1ccc2[nH]cc(C3CCN(CCC(c4ccccc4)c4ccccc4)CC3)c2c1"
F

====

Measured growth inhibition values are reported for all entries that follow.
# ASSAY_METHOD_TEXT: inhibition of 3D7 malaria parasite growth – strain 3D7 (AID 2306);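 further: 0% = DMSO wells and 100% = chloroquine plus artemisinin control wells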
# CONDITION_NOTES: P. falciparum 3D7 erythrocytic growth, LDH absorbance, 72 h; at 2 µM; active compounds read high
Note: unit % is implicit; provide only the numeric part.

| COMPOUND | READOUT_UNITS | growth inhibition |
| --- | --- | --- |
| CC(CN1CCN(C)CC1)C(=O)Nc1ccc(-c2ccc(-c3nc4ccccc4[nH]3)cc2)cc1 (stereo not given) | % | 92 |
| Cn1c(Sc2ncnc3sccc23)nc2ccccc21 | % | 100 |
| COc1cc(-c2[nH]c(-c3ccc(OCCN(C)C)cc3)cc2-c2ccncc2)ccc1Cl | % | 93 |

# query: growth inhibition of entry "Cc1cccc(CN2CCC(Oc3ccc(NC(=O)c4cccs4)cc3Cl)CC2)n1"
86

# query: growth inhibition of entry "Oc1ccc(CN2CC[C@@H](N3CCN(CCc4ccccc4)CC3)[C@H](O)C2)cc1Cl"
100

====

# TESTED_ON: Calcium-dependent protein kinase 4 (Plasmodium falciparum (isolate 3D7))
# ASSAY_METHOD_TEXT: PfCDPK4 kinase inhibitors, biochemical, TCAMS library (AID 1159588)
# CONDITION_NOTES: recombinant PfCDPK4, Kinase-Glo ATP depletion luminescence
Potency and affinity values are given separately. Calls of active or inactive are those of the source. No cut-off is given here; in the data, nearly all actives have IC50 up to about 0.91 µM.
OBSERVABLE: outcome

Worked cases, outcome given:
| MOLECULE | outcome |
| --- | --- |
| O=C(Nc1ccc(-c2nc3ccccc3[nH]2)cc1)c1ccc(S(=O)(=O)N2CCc3ccccc32)cc1 | inactive |
| CC(C)(C)COC(=O)c1ccc(NC(=O)N[C@@H](Cc2ccc(O)cc2)C(=O)NC2CCN(Cc3ccc(O)cc3)C2)cc1 (stereo not given in full) | inactive |
| Cc1cc(N[C@@H](Cc2ccccc2)C(=O)NC2CCCC2)nc(NCC2CCCCC2)n1 | inactive |
| COc1ccc2c(NN=Cc3ccccc3Cl)cc(C)nc2c1 | inactive |
| COc1cccc(COCC(O)CN(CCc2ccccn2)C(=O)c2ccccc2F)c1 (stereo not given) | inactive |
| COc1ccc2nccc(N3CCC(NCCNCc4ccc5c(n4)NC(=O)CS5)C3)c2n1 (stereo not given) | inactive |
| Nc1cccc(CNCc2ccc(-c3ccc(-c4nc5ccc(F)cc5[nH]4)s3)cc2)c1 | inactive |
| O=C(Nc1ccc2c(c1)CCC2)c1cnc(N2CCN(c3ccncc3)CC2)c(Cl)c1 | inactive |

# query: outcome of entry Cc1cccn2c(=O)c3cc(C(=O)NC(C)c4ccccc4)c(=N)n(CCN4CCOCC4)c3nc12 (stereo not given)
inactive

# query: outcome of entry "CN1CCN(CCCN(Cc2csc(-c3ccc(CNCc4ccccc4)cc3)n2)C(=O)Nc2cc(Cl)cc(Cl)c2)CC1"
inactive

# query: outcome of entry "COc1ccc2nc(C)cc(NN=Cc3cccc(Cl)c3)c2c1"
inactive

# query: outcome of entry "COc1ccc(CNCc2cccc(-c3ccc(-c4nc5ccccc5[nH]4)s3)c2)cc1"
inactive

# query: outcome of entry "COc1cccc(CC(=O)N2CCC(n3c(C)nc4ccc(F)cc43)CC2)c1"
inactive

====

# TESTED_ON: Calcium-dependent protein kinase 1 (Plasmodium falciparum (isolate 3D7))
# ASSAY_METHOD_TEXT: PfCDPK1 kinase inhibitors, biochemical, TCAMS library (AID 1159585);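 further: inhibitors leave more ATP so luminescence rises with inhibition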
# CONDITION_NOTES: recombinant PfCDPK1, Kinase-Glo ATP depletion luminescence
Measured potencies and affinities stand elsewhere. Active and inactive are the calls of the source. Cut-off not given; nearly all actives show IC50 up to about 0.98 µM.
OBSERVABLE: outcome

| TEST_SMILES | TESTED_ON | outcome |
| --- | --- | --- |
| Cc1[nH]cnc1CSCCNC(N)=NCCCCCCCCN=C(N)NCCSCc1nc[nH]c1C | Calcium-dependent protein kinase 1 (Plasmodium falciparum (isolate 3D7)) | inactive |
| Cn1nc(-c2ccccc2F)c2cc(C(=O)Nc3cccnc3)sc21 | Calcium-dependent protein kinase 1 (Plasmodium falciparum (isolate 3D7)) | inactive |
| O=C(Nc1cccc(-c2ccc(-c3nc4ccc(C(F)(F)F)cc4[nH]3)cc2)c1)Nc1ccc(F)c(F)c1F | Calcium-dependent protein kinase 1 (Plasmodium falciparum (isolate 3D7)) | inactive |
| Cc1[nH]nc2cc(Nc3nccc(Nc4ccc(Oc5ccccc5)cc4)n3)ccc12 | Calcium-dependent protein kinase 1 (Plasmodium falciparum (isolate 3D7)) | inactive |
| Cc1cc(N[C@@H](CC(C)C)C(=O)NCCc2ccccc2)nc(NCC2CCCCC2)n1 | Calcium-dependent protein kinase 1 (Plasmodium falciparum (isolate 3D7)) | inactive |

# query: outcome of entry "Cc1cc(N[C@@H](CC(C)C)C(=O)NCc2cccc(F)c2)nc(NCCc2ccccc2)n1"
inactive

# query: outcome of entry "O=S(=O)(Nc1cccc(CCN2CCC(N3CCCCC3)CC2)c1)c1cccc(C(F)(F)F)c1"
inactive

# query: outcome of entry "CCn1ccc2c3c(N)nc(N)nc3ccc21"
inactive

# query: outcome of entry "O=S(=O)(NCCN1CCCC1)c1ccc(-c2ccc(CNCc3ccccc3)cc2)s1"
inactive

# query: outcome of entry "COc1ccc2nccc(NN=Cc3ccc(F)cc3)c2c1"
inactive
